Measurement Description: blockers of cytochrome c efflux from mitochondria – biochemical, purified mitochondria (AID 1603);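 also: mouse liver mitochondria challenged with calcium chloride; signal normalized to the plate average as 100%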
Particulars: stronger effect = lower value
Quick list: cytochrome c release ratio per entry.
Please state the value as a number alone, without comment.

Solved cases below.
Determine its reported cytochrome c release ratio: CCN(CC)CCNC(=O)COc1ccc(OC)cc1
0.98

Determine its reported cytochrome c release ratio: NC(CO)C(=O)NNCc1ccc(O)c(O)c1O (configuration not stated)
0.53

Determine its reported cytochrome c release ratio: C[N+]12CCC(CC1)C(OC(=O)C(O)(c1ccccc1)c1ccccc1)C2 (configuration not stated)
1.79

Determine its reported cytochrome c release ratio: CC1CCc2cc(F)cc3c(=O)c(C(=O)O)cn1c23 (configuration not stated)
1.29

Continuing:
Determine its reported cytochrome c release ratio: CCCCNc1ccc(C(=O)OCCN(C)C)cc1
0.87

Determine its reported cytochrome c release ratio: CN1Cc2c(N)cccc2C(c2ccccc2)C1 (configuration not stated)
0.88

meta.source: PubChem BioAssay
